Here, each record is paired with measured MIC data.
- Tested on: Bacillus subtilis
- test description: Antibacterial activity against Bacillus subtilis SCSIO BS01
- Type: functional

In the examples that follow, each entry is paired with its recorded MIC.
{"compound": "CC(C)=CCC/C(C)=C/C[C@@]12OC(C)(C)[C@H](Cl)C[C@]1(Cl)C(=O)c1c(O)cc(O)cc1C2=O", "value kind": "MIC", "assay value": "≤ 2 µg/mL"}
{"compound": "C=C1CC[C@H](Br)C(C)(C)[C@@H]1C[C@@]12OC(C)(C)[C@H](Cl)C[C@]1(Cl)C(=O)c1c(O)cc(O)cc1C2=O", "value kind": "MIC", "assay value": "≤ 0.5 µg/mL"}
{"compound": "C=C1CC[C@H](Cl)C(C)(C)[C@@H]1C[C@@]12OC(C)(C)[C@H](Cl)C[C@]1(Cl)C(=O)c1c(O)cc(O)cc1C2=O", "value kind": "MIC", "assay value": "≤ 2 µg/mL"}
{"compound": "C/C(C=O)=C/CC/C(C)=C/C[C@@]12OC(C)(C)[C@H](Cl)C[C@]1(Cl)C(=O)c1c(O)cc(O)cc1C2=O", "value kind": "MIC", "assay value": "4 to 32 µg/mL"}
{"compound": "CC(C)=CCC/C(C)=C/C[C@]1(O)C(=O)c2cc(O)cc(O)c2C(=O)[C@@]1(Cl)CC=C(C)C", "value kind": "MIC", "assay value": "≤ 2 µg/mL"}

Fill in: MIC of CC1(C)OC2=C(C[C@H]1Cl)C(=O)c1c(O)cc(O)cc1C2=O is ___ 4 to 32 µg/mL

Query: MIC; subject: CC(C)=CCC/C(C)=C/C[C@@]12OC(C)(C)[C@H](Cl)C=C1C(=O)c1c(O)cc(O)cc1C2=O 4 to 32 µg/mL

Taken from ChEMBL document CHEMBL4270488.
